- SUBJECT OF TEST: T1, MBP-PDZ fusion protein (mammalian (so in the source), UniProt P57105 6-100, limits assumed)
- T1 construct: domain: PDZ domain; also called MBP fusion PDZ
- T1 sequence (looked up): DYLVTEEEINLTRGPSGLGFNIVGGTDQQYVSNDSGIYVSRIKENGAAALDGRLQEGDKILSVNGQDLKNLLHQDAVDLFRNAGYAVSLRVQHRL
- PROCEDURE DETAILS: beads-binding assay, MBP-PDZ-coupled resin
OBSERVABLE: binding result

Task: Would you kindly share the measured binding result for P6 (VHH) VHH: HVQLVESGGGLVQAGGSLRLSCAASGRTFSRYTMGWFHQAPGKEREFVAEISGTGGNTGYADSVKGRFTMSRDNAKNTVYLQMNSLKPEDTGVYYCAAVIGSPTDSSDYRSSLDYDYWGQGTQVTVSE ?
Output: binds

Task: Recorded binding result of P3 (VHH) VHH: DVQLVESGGGLVQAGGSLRLSCAASGRTFSSYTMGWFHQAPGKEREFVAEIGGTGGNTGYADSVKGRFTISRDNAKNTVYLQMNSLKPEDTAVYYCAAVIGSPTDSSDYRSSLDYDYWGQGTQVTVSE , please.
Output: binds
